# ASSAY REMARKS: Oral exposure and bioavailability in rat
# Type: in vivo
# DETAILS: in vivo, oral, suspension at 30 mg/kg, read-out: bioavailability
Where a name gives a salt, the structure may show the parent alone.
MEASURED PARAMETER: bioavailability (%)

compound="O=C(O)C[C@H]1CC[C@H](c2ccc(-c3ccc(Nc4nc5ccccc5o4)cn3)cc2)CC1 [meglumine salt]" number=3.1

###

# ASSAY REMARKS: Solubility in buffers, biorelevant media and water
# DETAILS: Water
MEASURED PARAMETER: Solubility (mg/mL)

compound="O=C([O-])C[C@H]1CC[C@H](c2ccc(-c3ccc(Nc4nc5ccccc5o4)cn3)cc2)CC1.[K+] [Potassium]" measured_parameter=Solubility units_text=mg/mL number=1.05
compound="O=C(O)C[C@H]1CC[C@H](c2ccc(-c3ccc(Nc4nc5ccccc5o4)cn3)cc2)CC1 [Meglumine Form A]" measured_parameter=Solubility units_text=mg/mL number=0.07
compound="O=C(O)C[C@H]1CC[C@H](c2ccc(-c3ccc(Nc4nc5ccccc5o4)cn3)cc2)CC1 [Free acid]" measured_parameter=Solubility units_text=mg/mL number=0.01
compound="O=C([O-])C[C@H]1CC[C@H](c2ccc(-c3ccc(Nc4nc5ccccc5o4)cn3)cc2)CC1.[Na+] [Sodium]" measured_parameter=Solubility units_text=mg/mL number=0.023

###

# ASSAY REMARKS: Oral bioavailability in mouse
# Format: in vivo
# DETAILS: in vivo, oral, suspension at 30 mg/kg, read-out: bioavailability
Structures can show the parent of a compound that is named as a salt.
MEASURED PARAMETER: bioavailability (%)

compound="O=C(O)C[C@H]1CC[C@H](c2ccc(-c3ccc(Nc4nc5ccccc5o4)cn3)cc2)CC1 [meglumine salt]" number=17.3

###

# ASSAY REMARKS: Solubility in buffers, biorelevant media and water
# DETAILS: 50 mM acetate buffer, pH 4.8, aqueous buffer, Solubility [mg/ml], pH 4.8 (50 mM Acetate)
MEASURED PARAMETER: Solubility

compound="O=C(O)C[C@H]1CC[C@H](c2ccc(-c3ccc(Nc4nc5ccccc5o4)cn3)cc2)CC1 [Free acid]" measured_parameter=Solubility result="< 0.5 µg/mL"

###

# ASSAY REMARKS: Solubility in buffers, biorelevant media and water
# DETAILS: SGF, pH 2, simulated gastric fluid, Solubility [mg/ml], SGF pH 2.0
MEASURED PARAMETER: Solubility

compound="O=C(O)C[C@H]1CC[C@H](c2ccc(-c3ccc(Nc4nc5ccccc5o4)cn3)cc2)CC1 [Free acid]" measured_parameter=Solubility result="< 0.5 µg/mL"

###

# ASSAY REMARKS: Oral exposure and bioavailability in rat
# Format: in vivo
# DETAILS: in vivo, oral, 300 mg/kg, suspension at 300 mpk, read-out: bioavailability
Where a name gives a salt, the structure may show the parent alone.
MEASURED PARAMETER: bioavailability (%)

compound="O=C(O)C[C@H]1CC[C@H](c2ccc(-c3ccc(Nc4nc5ccccc5o4)cn3)cc2)CC1 [meglumine salt]" units_text=% number=1.9

###

# ASSAY REMARKS: Hygroscopicity (relative humidity)
# Format: physicochemical
# DETAILS: 0-40% r.h.
MEASURED PARAMETER: Hygroscopicity [%] 0-40% r.h. (%)

molecule="O=C(O)C[C@H]1CC[C@H](c2ccc(-c3ccc(Nc4nc5ccccc5o4)cn3)cc2)CC1 [Meglumine Form A]" number=0.162
molecule=C[N+](C)(C)CCO.O=C(O)C[C@H]1CC[C@H](c2ccc(-c3ccc(Nc4nc5ccccc5o4)cn3)cc2)CC1.O=C([O-])C[C@H]1CC[C@H](c2ccc(-c3ccc(Nc4nc5ccccc5o4)cn3)cc2)CC1 number=1.44
molecule="O=C(O)C[C@H]1CC[C@H](c2ccc(-c3ccc(Nc4nc5ccccc5o4)cn3)cc2)CC1 [Free acid]" number=0.136
molecule="O=C([O-])C[C@H]1CC[C@H](c2ccc(-c3ccc(Nc4nc5ccccc5o4)cn3)cc2)CC1.[Na+] [Sodium]" number=13.1
molecule=O=C([O-])C[C@H]1CC[C@H](c2ccc(-c3ccc(Nc4nc5ccccc5o4)cn3)cc2)CC1.[K+] number=4.52

All figures here come from patent US8987459B2.
